Just for reference, patent US20100004221A1 is where these values come from.

Quick reference: melting point of the listed items.

Find the recorded melting point belonging to CC1(CO)Cc2nnc(-c3ccc(-c4ccccc4Cl)cc3Cl)n2CCS1 (stereo not drawn) and report it.
177 to 180 °C

Name the reported melting point value associated with the compound CC1(CO)Cc2nnc(-c3cccc(-c4ccc(F)cc4)c3Cl)n2CCS1 (stereo not drawn)
192 to 195 °C

Item under review: CC1(CO)Cc2nnc(-c3ccc(-c4cccc(Cl)c4F)cc3Cl)n2CCS1 (stereo not drawn) . Reported melting point?
156 to 160 °C

###

Items are presented alongside their recorded melting point.

// known answers, use as guide
>  <COMPOUND>
CC1(CO)Cc2nnc(-c3ccc(-c4cc(F)cc(F)c4)cc3Cl)n2CCS1 (stereo not drawn)

>  <RECORDED MEASUREMENT>
260 to 265 °C

$$$$
>  <COMPOUND>
CC1(CO)Cc2nnc(-c3ccc(-c4cccc(F)c4)cc3Cl)n2CCS1 (stereo not drawn)

>  <RECORDED MEASUREMENT>
206 to 209 °C

$$$$
>  <COMPOUND>
CCc1ccccc1-c1nnc2n1CCSC(C)(C)C2

>  <RECORDED MEASUREMENT>
125 °C

$$$$
>  <COMPOUND>
CC1(CO)Cc2nnc(-c3ccc(-c4ccc(F)cc4)cc3Cl)n2CCS1 (stereo not drawn) [Example 1]

>  <RECORDED MEASUREMENT>
190 to 193 °C

$$$$
>  <COMPOUND>
CC1(CO)Cc2nnc(-c3ccc(-c4cccc(Cl)c4)cc3Cl)n2CCS1 (stereo not drawn)

>  <RECORDED MEASUREMENT>
173 to 176 °C

$$$$

Tell me the measured melting point of CC1(CO)Cc2nnc(-c3ccc(N4CCOCC4)cc3Cl)n2CCS1 (stereo not drawn) , please.
191 to 193 °C

Which melting point reading was recorded for the compound CC1(CO)Cc2nnc(-c3ccc(-c4ccncc4)cc3Cl)n2CCS1 (stereo not drawn) ?
229 to 233 °C

What value of melting point has been reported for the following compound? CC1(CO)Cc2nnc(-c3ccc(Oc4ccc(F)cc4)cc3Cl)n2CCS1 (stereo not drawn)
138 to 140 °C

For Cc1ccc(-c2ccc(-c3nnc4n3CCSC(C)(CO)C4)c(Cl)c2)cc1 (stereo not drawn) , what is its reported melting point?
223 to 225 °C

###

- ASSAY TARGET: human 11β-HSD1 (Homo sapiens, UniProt P28845)
- Construct: cDNA coding for a full-length of human 11β-HSD1 in a mammal cell expression vector pCIneo; made in house; host or cells: HEK293 cells (transient transfection with pCIneo plasmid); microsome fraction used as enzyme source
- Sequence (P28845 whole entry): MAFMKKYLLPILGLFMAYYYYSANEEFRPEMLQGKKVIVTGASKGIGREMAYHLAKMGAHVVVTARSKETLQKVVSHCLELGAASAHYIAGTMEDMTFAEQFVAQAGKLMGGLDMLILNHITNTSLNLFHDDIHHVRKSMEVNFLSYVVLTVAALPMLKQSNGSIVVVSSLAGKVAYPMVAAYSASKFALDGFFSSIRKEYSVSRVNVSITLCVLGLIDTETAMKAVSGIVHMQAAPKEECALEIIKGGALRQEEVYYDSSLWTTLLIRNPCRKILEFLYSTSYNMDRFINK
- ASSAY SUMMARY: 11β-HSD1 enzyme inhibition experiment
- Assay type: biochemical
- TEST PARAMETERS: test compound at 39 nM; microsome fraction of HEK293 cells expressing human 11β-HSD1; cortisone 160 nM, room temperature, 3 h; read-out: inhibiting effects on cortisol production dependent on the 11β-HSD1 expressing cells
QUANTITY MEASURED: inhibition at 0.039 µM (%)

>  <MOLECULE>
CC1(CO)Cc2nnc(-c3ccc(-c4ccc(F)cc4)cc3Cl)n2CCS1 (stereo not shown) [Example 1]

>  <inhibition at 0.039 µM, %>
71.8

$$$$
>  <MOLECULE>
CC1(C2CC2)Cc2nnc(-c3ccccc3Cl)n2CCS1 (stereo not shown) [Example 52]

>  <inhibition at 0.039 µM, %>
89

$$$$

[P] COc1cc(-c2ccc(F)c(Cl)c2)ccc1-c1nnc2n1CCSC(C)(CO)C2 (stereo not shown) [Example 32]
[Q] Cc1c(-c2nnc3n2CCSC(C)(CO)C3)sc2ccc(Cl)cc12 (stereo not shown) [Example 8]
Looking at recorded values for inhibition at 0.039 µM, does P or Q come in lower? Respond with the label that goes with your answer.
P
(P: 35.8%, Q: 67.1%)
